System: MDA-MB-231 breast
Assay: NCI-60 one-dose screen, 48 h (100 = growth as untreated, 0 = no growth, -100 = all killed)
Conditions: 10 µM unless noted
The panel holds about 83,000 compounds, 20% with a hit somewhere; the sample as a whole holds those more often.

compound	target-entity	growth, %
CN1CCC(O)(c2ccc(F)cc2)C(C(=O)c2ccc(F)cc2)C1 (stereo not drawn)	MDA-MB-231 breast	104
Cc1ccc(S(=O)(=O)C(Cl)(Cl)Cl)cc1	MDA-MB-231 breast	95.8
O=C(CC1(O)C(=O)Nc2ccc(Cl)cc21)c1ccc(C(=O)NCC2CCC3(CC2)OOC2(CCCCC2)OO3)cc1 (stereo not drawn)	MDA-MB-231 breast	16.8
COC(=O)[C@@H](C)C[C@H](Cc1ccccc1)NC(=O)c1csc([C@@H](C[C@H](C(C)C)N(C)C(=O)[C@H](C)NC(=O)[C@H]2CCCN2C)OC(C)=O)n1	MDA-MB-231 breast	63.6
Cc1ccc(C(=O)NCCCOc2ccc(N)cc2Cl)cc1S(=O)(=O)F	MDA-MB-231 breast	106
CN(C)C1C(=O)C(C(N)=O)=C(O)C2(O)C(=O)C3=C(O)c4c(O)cccc4C(C)(O)C3CC12.[Cl][Sb]([Cl])[Cl] (stereo not drawn)	MDA-MB-231 breast	79.1
CC(C)(C)C(=O)OCOP(=O)(OCOC(=O)C(C)(C)C)C1CCCN(O)C1=O (stereo not drawn)	MDA-MB-231 breast	5.67
CCCCCCCCCCCCCC[P+](CCCCCC)(CCCCCC)CCCCCC	MDA-MB-231 breast	-38.3
CCOC(=O)[C@@H](C)C[C@H](Cc1ccccc1)NC(=O)c1csc([C@@H](C[C@H](C(C)C)N(C)C(=O)[C@@H](NC(=O)[C@H]2CCCCN2C)C(C)(C)C)OC(C)=O)n1	MDA-MB-231 breast	-5.5
COc1cc(C=Nc2cccc(Br)c2)ccc1N(CCCl)CCCl	MDA-MB-231 breast	91.2
CC(C)(C)N1CC1C#N (stereo not drawn)	MDA-MB-231 breast	96.3
Clc1ccc(CSC(Cn2ccnc2)c2ccc(Cl)cc2Cl)cc1 (stereo not drawn)	MDA-MB-231 breast	64.7
O=C1CNC(c2ccccc2)c2cc(Cl)ccc2N1 (stereo not drawn)	MDA-MB-231 breast	94.9

---

System: PC-3 prostate
Assay: NCI-60 one-dose screen, 48 h (100 = growth as untreated, 0 = no growth, -100 = all killed)
Conditions: 10 µM unless noted
The panel holds about 83,000 compounds, 20% with a hit somewhere; the sample as a whole holds those more often.
property: growth (%)

> print(dat)
                                   compound  property  reading
1                          Clc1cccc(Cl)c1Cl    growth      103
2  C/C(=C\c1ccn(-c2ccc(N)c(F)c2)n1)[C@@H]1C[C@@H]2O[C@]2(C)CCC[C@H](C)[C@H](O)[C@@H](C)C(=O)C(C)(C)[C@@H](O)CC(=O)O1    growth     14.7
3  Brc1ccc2c(c1)c(-c1nc(-c3c[nH]c4ncccc34)cs1)cn2CCN1CCCCC1    growth     51.4
4  NC(=O)C(Br)c1ccccc1 (configuration not stated)    growth     94.3
5  C/C(Cc1ccc(Cl)cc1)=C(\c1ccc(OCCN2CCOCC2)cc1)c1ccc(OC(=O)Cc2ccccc2)cc1    growth     81.9
6  COc1ccc(Nc2ccc([N+](=O)[O-])cc2[N+](=O)[O-])cc1CN(CCCl)CCCl    growth     46.8
7  COc1ccc(C2=N[C@@H](Cc3ccccc3)C(=O)Nc3ccsc32)cc1    growth     59.1
